# Test summary: NCI Yeast Anticancer Drug Screen. Data for the bub3 strain (AID 167)
# Run conditions: S. cerevisiae bub3 mutant strain, at 50.0 µM, active compounds read high
# Method: Growth inhibition of yeast strains with defined genetic alterations is measured as a screen for potential anti-cancer activity. Selected strains with alterations in DNA damage repair or cell cycle control were exposed to compounds and growth inhibition was measured relative to vehicle treated controls. The strain used in this assay is bub3
About 79,000 compounds went through this panel and 15% of them were active in at least one assay; those are over-represented in the sample as a whole.
Measured endpoint: growth inhibition (%)
Report the value in % with no unit label.

Inquiry: What value of growth inhibition has been recorded for this entry: N#CC(C#N)=Cn1c(=S)[nH]c2ccc([N+](=O)[O-])cc21
Reply text: -9

Inquiry: What value of growth inhibition has been recorded for this entry: OC1COC2CC(Nc3ccccn3)OC12 (centres undefined)
Reply text: -10.2

Inquiry: What value of growth inhibition has been recorded for this entry: O=C(Oc1ccc([N+](=O)[O-])cc1)C(CSC(c1ccccc1)(c1ccccc1)c1ccccc1)NC(c1ccccc1)(c1ccccc1)c1ccccc1 (centres undefined)
Reply text: -3.6

Inquiry: What value of growth inhibition has been recorded for this entry: CC(C)CCC[C@@H](C)[C@H]1CC[C@H]2[C@@H]3CC=C4C[C@@H](OC(=O)c5cccc6c(=O)c7ccccc7[nH]c56)CC[C@]4(C)[C@H]3CC[C@]12C
Reply text: -3.8

---

Exercise: for every item that follows, state its recorded growth inhibition.
# Test summary: NCI Yeast Anticancer Drug Screen. Data for the mec2-1 strain (AID 157)
# Run conditions: S. cerevisiae mec2-1 strain, at 50.0 µM, active compounds read high
This is part of a sample that, as a whole, favours compounds with a hit. Of some 79,000 tested, about 15% had one in any assay.
Report the value in % with no unit label.

Inquiry: What value of growth inhibition has been recorded for this entry: Cc1ccc(Nc2nc3ccccc3nc2NS(=O)(=O)c2ccc(N)cc2)cc1
Reply text: 11.8

Inquiry: What value of growth inhibition has been recorded for this entry: CCOC1NC(=O)c2ccccc21 (stereo not given)
Reply text: 6.15

Inquiry: What value of growth inhibition has been recorded for this entry: CCOc1ccc(/C=C2\N=C(c3cccc(Cl)c3)OC2=O)cc1
Reply text: 15.3

Inquiry: What value of growth inhibition has been recorded for this entry: O=Cc1ccc(-c2ccc([N+](=O)[O-])cc2)o1
Reply text: 9

Inquiry: What value of growth inhibition has been recorded for this entry: N#C/C(=C\c1ccccc1Cl)C(N)=S
Reply text: 11.2

Inquiry: What value of growth inhibition has been recorded for this entry: COc1ccc(OC)c(NCc2ccccc2)c1
Reply text: -2.5

Inquiry: What value of growth inhibition has been recorded for this entry: COC(=O)C(=O)C(C(=O)C(=O)Nc1ccccc1C(N)=O)c1nc2ccc(C(=O)c3ccccc3)cc2[nH]c1=O (stereo not given)
Reply text: 20

Inquiry: What value of growth inhibition has been recorded for this entry: Cc1cc(Cl)cc(CN(C)Cc2c(C)[nH]c(=O)[nH]c2=O)c1O
Reply text: -17.1

Inquiry: What value of growth inhibition has been recorded for this entry: Fc1cccc(-c2nnc(-c3cccc4ccccc34)o2)c1
Reply text: -1.8

Inquiry: What value of growth inhibition has been recorded for this entry: CC(C)OC(=O)Nc1cccc(NC(=O)OCCCl)c1
Reply text: -3.65

Inquiry: What value of growth inhibition has been recorded for this entry: O=c1nc(N2CCCCCCC2)ccn1C1OC(CO)C(O)C1O (stereo not given)
Reply text: 14.6

Inquiry: What value of growth inhibition has been recorded for this entry: COC(=O)c1nc(N)nc(C(=O)OC)c1C(=O)c1ccc2ccccc2c1
Reply text: -13

Inquiry: What value of growth inhibition has been recorded for this entry: S=C1N=C(Cl)/C(=C\c2ccco2)N1
Reply text: -18

Inquiry: What value of growth inhibition has been recorded for this entry: O=C(NC(c1ccccc1)C(O)c1ccccc1)C(Cl)Cl (stereo not given)
Reply text: -14.8

Inquiry: What value of growth inhibition has been recorded for this entry: Cn1c(=O)n2c(-c3ccccc3)c(-c3ccccc3)n2c1=O
Reply text: -19.6

Inquiry: What value of growth inhibition has been recorded for this entry: CCOC(=S)SCCSC
Reply text: 6.3

Inquiry: What value of growth inhibition has been recorded for this entry: O=C(Nc1ccccc1Cl)c1ccc(F)cc1
Reply text: -12.2

Inquiry: What value of growth inhibition has been recorded for this entry: CCN(C(=O)CCl)c1ccccc1
Reply text: 0.35

Inquiry: What value of growth inhibition has been recorded for this entry: Cc1cc(N=Nc2ccc(C(=O)O)cc2)c(N)cc1N
Reply text: -5.55

Inquiry: What value of growth inhibition has been recorded for this entry: C=C1c2ccccc2N(S(=O)(=O)c2ccc(C)cc2)C12CCCCC2
Reply text: 14.6

Inquiry: What value of growth inhibition has been recorded for this entry: Cc1nnc(N/N=C/c2ccccc2)n1/N=C\c1ccccc1
Reply text: 17.1

Inquiry: What value of growth inhibition has been recorded for this entry: Cc1cn(C2CC(O)C(CO)O2)c(=O)nc1N1CCCC1 (stereo not given)
Reply text: -7.4

Inquiry: What value of growth inhibition has been recorded for this entry: CC1(C)SC2C(C(=O)O)N=C(Cc3ccccc3)N2C1C(=O)O (stereo not given)
Reply text: -17.9

Inquiry: What value of growth inhibition has been recorded for this entry: ClCC1=NC2C(Cl)C(Cl)C(Cl)C(Cl)C2N1 (stereo not given)
Reply text: 77

Inquiry: What value of growth inhibition has been recorded for this entry: Cc1ccc(C)c(NC(=S)Nc2ccccc2)c1
Reply text: -9

# credit: PubChem BioAssay (NCI)
